Ref: patent US12180193B2

- MEASUREMENT TARGET: BRAF G466V (Homo sapiens, UniProt P15056, G466V)
- Construct: expressed in transfected cells
- Sequence (P15056 whole entry G466V): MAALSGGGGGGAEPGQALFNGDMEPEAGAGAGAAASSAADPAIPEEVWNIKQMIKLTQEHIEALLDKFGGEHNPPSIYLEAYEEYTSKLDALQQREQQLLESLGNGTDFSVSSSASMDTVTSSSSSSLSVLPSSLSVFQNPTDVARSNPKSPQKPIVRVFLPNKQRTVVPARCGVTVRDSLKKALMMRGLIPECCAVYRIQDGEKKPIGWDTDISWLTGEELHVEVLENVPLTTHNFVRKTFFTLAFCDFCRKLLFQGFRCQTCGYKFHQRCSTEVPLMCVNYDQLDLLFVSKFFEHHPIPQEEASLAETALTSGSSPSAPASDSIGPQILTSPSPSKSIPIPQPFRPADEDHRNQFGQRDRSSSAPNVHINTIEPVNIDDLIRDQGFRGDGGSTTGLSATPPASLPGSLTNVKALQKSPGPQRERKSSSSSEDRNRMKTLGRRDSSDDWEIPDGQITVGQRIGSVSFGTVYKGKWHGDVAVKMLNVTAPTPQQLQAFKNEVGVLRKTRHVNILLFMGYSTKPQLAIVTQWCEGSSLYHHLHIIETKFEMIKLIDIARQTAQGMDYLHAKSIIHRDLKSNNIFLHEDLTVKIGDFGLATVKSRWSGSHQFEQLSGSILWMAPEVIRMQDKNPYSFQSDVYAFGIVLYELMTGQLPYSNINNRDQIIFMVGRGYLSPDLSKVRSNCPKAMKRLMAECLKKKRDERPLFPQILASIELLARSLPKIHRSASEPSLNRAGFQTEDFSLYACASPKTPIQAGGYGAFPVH
- PROCEDURE TEXT: Cellular assay of target protein degradation, T-Rex 293 cells stably transfected with HA-BRAF G466V (HA immunofluorescence, high content imaging)
- Type: cell-based
- CONDITION SUMMARY: maximum degradation observed, T-Rex 293 HA-BRAF G466V
Consider the following molecules and their measured Dmax readings.

Example entries and their recorded answers appear below.
| MOLECULE | Dmax |
| --- | --- |
| CN(CC1CCN(c2ccc(-c3cnc4[nH]cc(C(=O)c5c(F)ccc(NS(=O)(=O)N6CC[C@@H](F)C6)c5F)c4c3)cc2)CC1)[C@H]1C[C@@H](Oc2ccc3c(c2)CN(C2CCC(=O)NC2=O)C3=O)C1 (stereo partly drawn) [Compound 155] | > 70% |
| C[C@@H](c1ncc(-c2cnc3[nH]cc(C(=O)c4c(F)ccc(NS(=O)(=O)N5CC[C@@H](F)C5)c4F)c3c2)cn1)N1CCN(CC2CCN(c3ccc4c(c3)CN([C@H]3CCC(=O)NC3=O)C4=O)CC2)CC1 [Compound 289] | 35 to 70% |
| COc1cc(OCCCCN2CCN(c3ccc(-c4cnc5[nH]cc(C(=O)c6c(F)ccc(NS(=O)(=O)N7CC[C@@H](F)C7)c6F)c5c4)cc3)CC2)cc2c1C(=O)N(C1CCC(=O)NC1=O)C2 (stereo partly drawn) [Compound 331] | 35 to 70% |
| O=C1CCC(N2Cc3cc(N4CCC(CN5CC[C@@H]6[C@H](C5)CN6c5ccc(-c6cnc7[nH]cc(C(=O)c8c(F)ccc(NS(=O)(=O)N9CC[C@@H](F)C9)c8F)c7c6)cc5)CC4)ccc3C2=O)C(=O)N1 (stereo partly drawn) [Compound 311] | > 70% |
| O=C1CCC(N2Cc3cc(OCCCCN4CCN(c5ccc(-c6cnc7[nH]cc(C(=O)c8c(F)ccc(NS(=O)(=O)N9CC[C@@H](F)C9)c8F)c7c6)cc5F)CC4)ccc3C2=O)C(=O)N1 (stereo partly drawn) [Compound 113] | > 70% |
| O=C1CCC(N2Cc3cc(N4CCC(N5CCN(CC6CN(c7ccc(-c8cnc9[nH]cc(C(=O)c%10c(F)ccc(NS(=O)(=O)N%11CC[C@@H](F)C%11)c%10F)c9c8)cc7)C6)CC5)CC4)ccc3C2=O)C(=O)N1 (stereo partly drawn) [Compound 144] | > 70% |
| O=C1CC[C@H](NC(=O)c2ccc(N3CCC(CN4CC5(C4)CN(c4ccc(-c6cnc7[nH]cc(C(=O)c8c(F)ccc(NS(=O)(=O)N9CC[C@@H](F)C9)c8F)c7c6)cc4)C5)CC3)cn2)C(=O)N1 [Compound 353] | 35 to 70% |
| O=C1CCC(N2Cc3cc(CCCN4CC5(C4)CN(c4ccc(-c6cnc7[nH]cc(C(=O)c8c(F)ccc(NS(=O)(=O)N9CCC(F)(F)C9)c8F)c7c6)cc4)C5)ccc3C2=O)C(=O)N1 (stereo not drawn) [Compound 248] | > 70% |

*Q* Dmax for O=C1CC[C@@H](N2Cc3cc(N4CCC(CN5CCC6(CCN(c7ccc(-c8cnc9[nH]cc(C(=O)c%10c(F)ccc(NS(=O)(=O)N%11CC[C@@H](F)C%11)c%10F)c9c8)cc7F)CC6)C5)CC4)ccc3C2=O)C(=O)N1 [Compound 259] ?
*A* 35 to 70%
